system under test: Virion infectivity factor (Human immunodeficiency virus type 1 group M subtype B (isolate BH10)) + Virion infectivity factor (Human immunodeficiency virus type 1 group M subtype B (isolate BRU/LAI)) + Virion infectivity factor (Human immunodeficiency virus type 1 group M subtype B (isolate PCV12)) + Virion infectivity factor (Human immunodeficiency virus type 1 group M subtype B (isolate HXB2)) + DNA dC->dU-editing enzyme APOBEC-3G (Homo sapiens) (UniProt P69720+P69721+P69722+P69723+Q9HC16)
measurement description: inhibitors of Vif binding to APOBEC3G peptide, primary screen, biochemical, TR-FRET, GST-Vif 1-94, biotin-A3G peptide, dose response retest (AID 1117319);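 note: Vif residues 1-94 fused to GST binding biotinylated APOBEC3G peptide 110-148; 0% = full assay without inhibitor and 100% = GST in place of GST-Vif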
measurement setup: active compounds read high
Out of some 260,000 compounds screened, about 1,500 (0.58%) were called active. About 5% were inconclusive and are not listed. These entries were drawn from the full list. Potency and affinity values are given separately.
The following molecules are shown together with reported inhibition values.
reported property: inhibition (%)

molecule	display unit	endpoint result
CC(C)COP(=O)(OCC(C)C)C(O)c1ccc(N(C)C)cc1 (centres undefined)	%	12.4
CC(C)(Cc1ccccc1)NC(=O)C(=O)c1cn(CC(=O)N2CCOCC2)c2ccccc12	%	6.86
O=C(NCC1CCCO1)c1ccc(CS(=O)(=O)c2ccc(Cl)cc2)o1 (centres undefined)	%	0.48
O=[N+]([O-])c1c(Nc2ccccn2)cc(Cl)c2nonc12	%	10.6
Cc1cc(C)cc(NC(=O)CCNS(=O)(=O)c2cc(Br)cnc2N)c1	%	-18.9
Cc1ccc(S(=O)(=O)N(C)c2ccc(C(=O)NCC(c3ccco3)N3CCCC3)cc2)cc1 (centres undefined)	%	-9.74
Cc1ccc(NS(=O)(=O)c2ccc(C(=O)N3CCCC(C(F)(F)F)C3)cc2)cc1 (centres undefined)	%	-6.68
Cc1ccc(/C=C2/NC(=O)N(Cc3ccc(Br)cc3)C2=O)o1	%	18.3
CCN(CC)c1ccc(/C=N/N2C(=O)c3ccccc3C2=O)c(O)c1	%	19.7
C/C(=N\Nc1ccc(Cl)c(C(=O)O)c1)c1ccccn1	%	-6.06
CC1CN(S(=O)(=O)c2cccc(C(=O)OCC(=O)NCc3ccccc3)c2)CC(C)O1 (centres undefined)	%	-6.28
O=C(OCc1cn([C@H]2CN(CC3CCCCC3)[C@@H](c3ccc(Cl)cc3)C[C@@H]2O)nn1)c1ccccc1	%	-2.33
CN(C)CC(=O)N1c2ccccc2Sc2ccc(Cl)cc21	%	3.03
O=C(CCCN1C(=O)c2ccccc2C1=O)N1CCc2ccccc2C1	%	-3.95
O=S(=O)(NC1CCCC1)c1ccc(F)cc1F	%	21.1
CCOC(=O)C1CCCN(C(=O)c2cc(-c3ccc(C)cc3)nc3ccccc23)C1 (centres undefined)	%	10.1
CC(C)OP(=O)(c1ccc(N(C)C)cc1)C(O)c1ccc(N(C)C)cc1 (centres undefined)	%	-8.7
O=C1CC(N2CCN(c3ccc(C(=O)c4ccc(F)cc4)cc3)CC2)C(=O)N1 (centres undefined)	%	28.2
COc1cc2c(cc1OC)CN(C(=O)c1cc3ccccc3oc1=O)CC2	%	1.51
Oc1cccc(/C=N/N2CCCCC2)c1O	%	-5.32
COc1ccc(NC(=O)CCC(=O)N/N=C/c2ccc([N+](=O)[O-])s2)cc1	%	23.7
O=C(OCC(=O)N1CCN(C(=O)c2ccco2)CC1)c1cc(-c2ccccc2)nc2ccccc12	%	-3.01
CCOc1ccc(CCNS(=O)(=O)c2ccc3c(c2)oc(=O)n3C)cc1OCC	%	13.6
CCN(CC(=O)Nc1c(F)cccc1F)C(=O)c1ccc2c(c1)OCCO2	%	8.86
CCOC(=O)c1ccc(N/C=C/C(=O)C(C)(C)C)cc1	%	5.83
CN1CCN(C(=O)c2ccc(CN3CCOCC3)cc2)CC1	%	-3.34
CCCN1C(=O)/C(=C/c2ccc(C)s2)NC1=S	%	1.31
O=C(OCn1nnc2ccccc2c1=O)c1cccnc1Cl	%	0.6
COc1ccc(C)cc1S(=O)(=O)NCC(c1ccco1)N1CCc2ccccc2C1 (centres undefined)	%	-3.21
COc1ccc(C(=O)NC2CC2)cc1OC1CCN(Cc2ccccc2F)CC1	%	-1.16
Cc1c(Cl)ccc(S(=O)(=O)NCCN2CCOCC2)c1Cl	%	6.83
CC(=O)Nc1ccc(Nc2cc(N(C)C)c3nonc3c2[N+](=O)[O-])cc1	%	0.25
CCN(CC)c1ccc(/C=N/N2CCOCC2)c(O)c1	%	-1.22
CN(C)c1cc(Nc2cccc(O)c2)c([N+](=O)[O-])c2nonc12	%	-10.7
Cc1ccc(NC(=O)CCNS(=O)(=O)c2cc(Br)cnc2N)cc1Cl	%	5.11
CN1CCN(c2nc3ccccc3nc2NS(=O)(=O)c2ccc(Br)cc2)CC1	%	4.67
O=C(Nc1ccc(NC(=O)c2cccs2)cc1)c1ccc2c(c1)OCCO2	%	3.57
CC1CCN(C(=O)CSc2nnc(-c3ccncc3)n2C)CC1	%	8.77
COc1ccc(NCc2ccc([N+](=O)[O-])s2)cc1	%	-7.61
Cn1ncc(Cl)c1C(=O)NC(=S)Nc1sc2c(c1C#N)CCCCC2	%	1.11
Cc1cc([N+](=O)[O-])c(C)cc1-c1ccc(/C=N/NC(=O)Cn2nnnc2N)o1	%	9.49
O=C1c2ccccc2C(=O)N1/N=C/c1ccc(O)c(O)c1	%	29.1
O=[N+]([O-])c1c(Nc2ccccc2O)ccc2nonc12	%	1.82
Nc1ncnc2c1CN(Cc1ccccc1)CC2	%	-5.85
